Listing of recorded GI50 by entry.
System: HCC-2998
Please state the figure in µM; there is no need to write the unit.

Would you please look over these solved cases?
C=C1CCC2C3(C)COC(c4cn(-c5ccccc5)nc4-c4cccc(Cl)c4)OC3CCC2(C)C1CC=C1C(=O)OCC1O (stereo not shown) | 1.81
C=C1CCC2C3(C)COC(c4cn(-c5ccccc5)nc4-c4ccc(OC)cc4)OC3CCC2(C)C1CC=C1C(=O)OCC1O (stereo not shown) | 1.7
C=C1CCC2C3(C)COC(c4cn(-c5ccccc5)nc4-c4ccc(C)cc4)OC3CCC2(C)C1CC=C1C(=O)OCC1O (stereo not shown) | 1.63

// lookup GI50 | system=HCC-2998 | key= C=C1CCC2C3(C)COC(c4cn(-c5ccccc5)nc4-c4cccc(Br)c4)OC3CCC2(C)C1CC=C1C(=O)OCC1O (stereo not shown)
1.72

Field: GI50 (HCC-2998). Entry: C=C1CCC2C3(C)COC(c4cn(-c5ccccc5)nc4-c4ccc(F)cc4)OC3CCC2(C)C1CC=C1C(=O)OCC1O (stereo not shown)
1.76

Under HCC-2998: GI50 value of C=C1CCC2C3(C)COC(c4cn(-c5ccccc5)nc4-c4cccc(F)c4)OC3CCC2(C)C1CC=C1C(=O)OCC1O (stereo not shown) ?
1.73

Provide the documented GI50 with HCC-2998 as the system for C=C1CCC2C3(C)COC(c4cn(-c5ccccc5)nc4-c4ccccc4)OC3CCC2(C)C1CC=C1C(=O)OCC1O (stereo not shown)
1.68
